Test system: Nucleic Acid
Assay comment: Binding affinity to poly(dA).poly(dT) duplex DNA assessed as ratio of KA to KB by ESI-MS analysis
Format: nucleic-acid assay
Here, each record is paired with measured Ratio data.

Smiles representation: Cn1cc(NC(=O)c2cc(NC(=O)c3cc(NC=O)cn3C)cn2C)cc1C(=O)NCCC(=N)N
Ratio: 4.4
--
Smiles representation: Cn1cc(NC(=O)c2cc(NC(=O)CNC(=N)N)cn2C)cc1C(=O)NCCC(=N)N
Ratio: 0.28
--
Smiles representation: N=C(N)c1ccc(/N=N/Nc2ccc(C(=N)N)cc2)cc1
Ratio: 0.32
--
Smiles representation: CCOc1ccc(-c2nc3cc(-c4nc5cc(N6CCN(C)CC6)ccc5[nH]4)ccc3[nH]2)cc1
Ratio: 3.7
--
Smiles representation: CN1CCN(c2ccc3[nH]c(-c4ccc5[nH]c(-c6ccc(O)cc6)nc5c4)nc3c2)CC1
Ratio: 2.4

meta.source: ChEMBL document CHEMBL1152837
